- Experiment: Compound was tested for maximum blood concentration after 10 mg/kg administration (Po) in Beagle dogs; nM/L maximum blood concentration
- Assay type: ADME, organism-based, Canis lupus familiaris
- Design: route oral, dose 10 mg/kg
- Test settings: dog
Result type: Cmax (µM)

INSERT INTO measurements (smiles_notation, result_type, reported_value) VALUES
  ('CNC(=O)[C@@H](Cc1ccc(F)cc1)N(C)C(=O)[C@@H](Cc1ccc2ccccc2c1)N(C)C(=O)/C=C/CC(C)(C)N', 'Cmax', 3.03);

* * *

Reported Emax is given for each of the following molecules.
- Target: Growth hormone secretagogue receptor type 1 (Rattus norvegicus)
- Experiment: Tested for GH-releasing property using classical rat pituitary cell assay
- Assay type: functional, cell-based
- Test settings: Pituitary gland cell
Result type: Emax (%)

INSERT INTO assay_data (molecule, reported_value) VALUES
  ('C[C@@H](O)CNC(=O)[C@@H](Cc1ccccc1)N(C)C(=O)[C@@H](Cc1ccc2ccccc2c1)N(C)C(=O)/C=C/CC(C)(C)N (stereo in doubt; 7o)', 105),
  ('C[C@H](NC(=O)C(Cc1c[nH]c2ccccc12)NC(=O)[C@@H](N)Cc1c[nH]cn1)C(=O)N[C@@H](Cc1c[nH]c2ccccc12)C(=O)NC(Cc1ccccc1)C(=O)N[C@@H](CCCCN)C(N)=O (single isomer, unassigned)', 100),
  ('C[C@@H](O)CNC(=O)[C@@H](Cc1ccccc1)N(C)C(=O)[C@@H](Cc1ccc2ccccc2c1)N(C)C(=O)/C=C/CC(C)(C)N (stereo in doubt; 7b)', 130),
  ('CN(C(=O)/C=C/CC(C)(C)N)[C@H](Cc1cccc2ccccc12)C(=O)N(C)[C@H](Cc1ccccc1)C(=O)NCC1CCCO1 (stereo partly specified)', 110),
  ('CN(C(=O)/C=C/CC(C)(C)N)[C@H](Cc1ccc2ccccc2c1)C(=O)N(C)[C@H](Cc1ccccc1)C(=O)NCC1CC1', 105),
  ('CNC(=O)[C@@H](Cc1ccccc1)N(C)C(=O)[C@@H](Cc1cccc2ccccc12)N(C)C(=O)/C=C/CC(C)(C)N', 115);
